experiment: NCI Yeast Anticancer Drug Screen. Data for the mlh1 rad18 strain (AID 175); details: S. cerevisiae mlh1 rad18 strain growth inhibition; at 5.0 µM (retest, dose inferred, filed as 0.5)
Compounds without any hit were thinned out: in the full panel of roughly 79,000, 15% have a hit. The source made the active and inactive calls. Rule as the data show it: active = growth inhibition above about 70%; inactive = the rest.
Would you mind answering with one of these outcomes? active, inactive

Query: In this assay, the call recorded for [pH]1p2[pH]p3p1p3[pH]2.c1cc[c]([Ge]([c]2ccccc2)[c]2ccccc2)cc1.c1cc[c]([Ge]([c]2ccccc2)[c]2ccccc2)cc1.c1cc[c]([Ge]([c]2ccccc2)[c]2ccccc2)cc1 was what?
Result: inactive

Query: Outcome logged for CC1=CC(=O)c2c(O)cccc2C1=O in this assay:
Result: inactive

Query: Record lookup: outcome of this test for ClCc1ccncc1 ?
Result: inactive

Query: Give the logged outcome of this assay for the following compound: C[N+](C)(C)CC1Cc2ccccc2C1=O (stereo not given)
Result: inactive

Query: In this assay, the call recorded for CC[PH+](CC)CC.[Cl][Au] was what?
Result: active

Query: Short answer needed: outcome of this test for COc1cc(C2c3cc4c(cc3[C@@H](Nc3ccc([N+](=O)[O-])cc3)C3COC(=O)[C@H]23)OCO4)cc(OC)c1O (stereo not given in full) ?
Result: active

Query: Recorded test call requested for OC(c1ccccc1)(c1ccccc1)c1ccccn1
Result: inactive

Query: Which outcome was assigned to C1CC[N-]CC1.C1CC[N-]CC1.N#C[S-].N#C[S-].[Cd] in this test?
Result: inactive

Query: For N#CC(C#N)=NNc1cccc(Cl)c1Cl , which call appears in the assay record?
Result: inactive

Query: Hey, what did the test say about Cc1cc[n+](C2C(=O)c3ccccc3C(=O)C2Nc2cc(Cl)ccc2Cl)cc1 (stereo not given) ?
Result: inactive

Query: Any idea what this test logged for COc1cc(/C=C(\C)[N+](=O)[O-])cc(Br)c1O ?
Result: inactive

Query: // return assay outcome for C/C=C1/C(=O)O[C@]23C=C[C@@H]4C(C(=O)OC)=CO[C@H](O[C@@H]12)[C@@H]43
Result: active

Query: // param item: C[Se]C([Se]C)=C([Se]C)[Se]C ; yields the recorded call
Result: inactive

Query: Recorded test call requested for CC1=C[C@H]2O[C@H]3C[C@H]4OC(=O)/C=C\C=C\C(=O)OCC[C@@H](C)C(O)C(=O)OC[C@@]2(CC1)[C@@]4(C)[C@]31CO1 (stereo not given in full)
Result: active

Query: Returns: the outcome recorded for COc1ccc2nc3ccccc3c(NCCCCN(C)CCCl)c2c1 in this assay.
Result: inactive

Query: How was O=C(O)C(Br)C(Br)C(=O)O.[Ag] (stereo not given) classified in this test?
Result: active

Query: # outcome recorded in this test, key = O=[N+]([O-])c1ccc(C2C3CC4C(OOC42)C3I)cc1 (stereo not given)
Result: inactive

Query: Field: outcome | Entry: COc1ccc(CC2C(=O)NC(C)C(=O)N(C)C3C(=O)N(C)C(Cc4ccc(O)c(c4)Oc4ccc(cc4)C3O)C(=O)NC(C)C(=O)NC(C)C(=O)N2C)cc1 (stereo not given) (tested in a mixture with another compound)
Result: inactive

Query: Short answer needed: outcome of this test for O=C(CBr)OCC(Br)CBr (stereo not given) ?
Result: active

Query: Please state the recorded outcome for this compound: CC(=O)NC1C(O[C@H]2CC[C@@]3(C)C(CC[C@]4(C)C3CC=C3C5CC(C)(C)CC[C@]5(C(=O)O)CCC34C)C2(C)C)OC(CO)C(O)C1O (stereo not given in full)
Result: inactive

###

assay: NCI Yeast Anticancer Drug Screen. Data for the rad50 strain (AID 155);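 also: 0% = growth of vehicle-only cultures of the same strain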; conditions: S. cerevisiae rad50 strain growth inhibition; at 50.0 µM; hits give high values
The panel holds about 79,000 compounds, 15% with a hit somewhere; the sample as a whole holds those more often. Calls of active or inactive are those of the source. No stated cut-off is given here; in the data, active means growth inhibition above about 70%; inactive means the rest.
Assign growth inhibition to each entry below.

Query: Data request, read-out growth inhibition, for O=[As](O)(c1cccc(Cl)c1)C1CCCCC1O (stereo not given)
Result: 1.05% (inactive)

Query: Sample CCCCNC(c1ccc(OC)cc1)C(O)c1ccc(OC)cc1 (stereo not given) — what was its growth inhibition?
Result: 2.35% (inactive)

Query: # input molecule: CP(C)C.[Ag][I] ; wanted: its growth inhibition
Result: -26.4% (inactive)

Query: growth inhibition lookup needed for O=P(OCCCCl)(OCCCCl)C(Cl)(Cl)Cl , thanks.
Result: -0.45% (inactive)

Query: Which growth inhibition value is on record for C[N+](C)(C)CC1CCCc2ccccc2C1=O (stereo not given) ?
Result: 88% (active)

Query: Recorded growth inhibition for COC(=O)C1=C(C)N2[C@H](C(=O)O)CO[C@@]2(C)[C@H](C(=O)OC)[C@H]1c1cccc([N+](=O)[O-])c1 , please?
Result: 26.6% (inactive)

Query: If you can, please state the reported growth inhibition value of NC(=O)c1ccc([As](O)O)cc1N .
Result: -0.05% (inactive)

Query: Entry [Br][Co][Br].[NH-]CC[NH-].[NH-]CC[NH-] : reported growth inhibition = ?
Result: 28.4% (inactive)

Query: growth inhibition lookup needed for C/C(=C\C(C)C)C1(C)C(=O)NC(=O)NC1=O , thanks.
Result: 8.85% (inactive)

Query: Which measured growth inhibition value corresponds to O=[N+]([O-])/C=C/c1c(Cl)cccc1Cl ?
Result: 99.2% (active)

Query: Quick check: growth inhibition of c1ccc(CC[n+]2cccc3ccccc32)cc1 ?
Result: -3.8% (inactive)

Query: // growth inhibition lookup, key: CN(C)C(=S)Oc1ccc(S(=O)(=O)F)cc1
Result: 34.2% (inactive)

Query: Given the molecule CCCCCCCCCCBr , what is its reported growth inhibition?
Result: 30.4% (inactive)

Query: Which growth inhibition value is on record for CCN1C(=O)C(=C/C=C/C=C2/N(C)c3ccccc3C2(C)C)C(=O)N(CC)C1=S ?
Result: -28.9% (inactive)

Query: Which growth inhibition value belongs to COc1ccc(/C=C\[N+](=O)[O-])cc1OC ?
Result: 99.4% (active)

Query: Any idea what growth inhibition was measured for CCC(=O)O.[Ag] ?
Result: 91.2% (active)

Query: Form field: reported growth inhibition of Cc1[nH]cc2c1C(c1ccccc1F)=NCC(=O)N2
Result: 19.7% (inactive)

Query: Entry O=C([CH-]C(=O)c1ccccc1)c1ccccc1.O=C([CH-]C(=O)c1ccccc1)c1ccccc1.[La+3].[OH-].[OH3+] : reported growth inhibition = ?
Result: 92% (active)

Query: Please report the recorded growth inhibition for CN(C)C(=S)Oc1c(Cl)cc(S(=O)(=O)F)cc1Cl .
Result: 35.4% (inactive)

Query: Fill in the blank: the reported growth inhibition of [CH3][Sn]([CH3])([CH3])[O]C(=O)CNC(=O)c1ccccc1 is ____.
Result: -8.55% (inactive)

Query: Recorded growth inhibition of [CH3][Sn]1([CH3])[c]2ccccc2Oc2cccc[c]21 , please.
Result: -11.9% (inactive)

Query: Requested read-out: growth inhibition. Entry: CN1CC=C(OP(=O)(NCc2ccccc2)N(CCCl)CCCl)CC1 (stereo not given)
Result: -6.25% (inactive)

Query: Field request: growth inhibition | item: CC/C(=C/c1ccc(OC)cc1)[N+](=O)[O-]
Result: 99.2% (active)

Query: Any idea what growth inhibition was measured for Nc1ccncc1 ?
Result: 4.35% (inactive)

Query: Give the measured growth inhibition of CNC(=O)c1cn(C2OC(CO)C(O)C2O)c2ncnc(N)c12 (stereo not given) .
Result: -5.95% (inactive)

Query: I have this molecule here, [Cl][Hg][c]1ccc(Cl)s1 , and I need its recorded growth inhibition.
Result: 99.2% (active)

Query: What does the record list as growth inhibition for CCC[CH2][Pb]([CH2]CCC)([CH2]CCC)[O]C(C)=O ?
Result: 9.6% (inactive)

Query: Given the entry CC(=O)[O][Sn]([c]1ccccc1)([c]1ccccc1)[c]1ccccc1 , report its measured growth inhibition.
Result: 91.1% (active)

Query: So what does the record say about growth inhibition for CS(=O)(=O)OCCN(CCCl)c1cc(C(N)=O)c([N+](=O)[O-])cc1[N+](=O)[O-] ?
Result: -6.8% (inactive)

Query: Look at this molecule and give its reported growth inhibition. Nc1ccc(/C=C/C(=O)Nc2ccc(S(=O)(=O)F)cc2)cc1
Result: 22.4% (inactive)

Query: What does the data say about its growth inhibition? Entry: CCOP(=O)(CCC[N+](=O)[O-])OCC
Result: -12.1% (inactive)

Query: Suppose we examine the molecule c1ccc(C2=NC(c3ccccc3)N3CC23c2ccccc2)cc1 (stereo not given) ; what growth inhibition value has been reported?
Result: 12.8% (inactive)

Query: Sample O=C(c1ccccc1)C1C(c2ccccc2)N1Cc1ccccc1 (stereo not given) — what was its growth inhibition?
Result: 0.35% (inactive)

Query: # growth inhibition lookup, item CN(C=O)C(=S)[S][Sb]([S]C(=S)N(C)C=O)[S]c1nc2ccc(N=Nc3ccc(NS(=O)(=O)c4ccc(NC(=O)C(N5CC5)(N5CC5)N5CC5)cc4)cc3)cc2s1
Result: 99.2% (active)

Query: Endpoint output: growth inhibition of O=C1NC2(CCCCC2)C(=O)N1CCCCN(CCCl)CCCl . Value?
Result: 1% (inactive)

Query: Which growth inhibition value belongs to CCC(CC)CNC(=O)C(C)Br (stereo not given) ?
Result: 2.05% (inactive)

Query: So what does the record say about growth inhibition for N#CC(C#N)=Cc1cccc(C#N)c1 ?
Result: -0.75% (inactive)

Query: So what's the measured growth inhibition for this one? Cc1ccc([As]=[As]c2ccc(C)cc2N)c(N)c1 (stereo not given)
Result: -12.3% (inactive)

Query: growth inhibition for CSCCC(N)P(C)(=O)O (stereo not given) ?
Result: -16.4% (inactive)

Query: Suppose we examine the molecule COC(=O)N/N=C(\C)C(CN(C)C)C(c1ccccc1)c1c(O)c2ccccc2oc1=O (stereo not given) ; what growth inhibition value has been reported?
Result: 35.4% (inactive)

Query: Entry COCCOC(=O)CCl has what growth inhibition?
Result: -4.35% (inactive)

Query: Could you share which growth inhibition value was measured for Cc1cc(CCN)c(C)c2c1sc1ccccc12 ?
Result: 99.7% (active)

Query: What value of growth inhibition has been recorded for this entry: N#Cc1ccccc1Cl
Result: 8.05% (inactive)

Query: So what does the record say about growth inhibition for O=[N+]([O-])c1c(F)cc(F)c([N+](=O)[O-])c1F ?
Result: -29.5% (inactive)

Query: Can you share its growth inhibition? I mean this molecule: [N-]=[N+]=NC1=C(N=[N+]=[N-])c2cccc3cccc(c23)C1=O
Result: 46.3% (inactive)

Query: May I ask what growth inhibition has been recorded for O=[As](O)(O)Cc1cccc(F)c1 ?
Result: -3.8% (inactive)

Query: Item ClCCN1CCOCC1 has what recorded growth inhibition?
Result: 98% (active)

Query: Returns the measured growth inhibition for the input molecule. Input: c1cc[c]([Sn]2([c]3ccccc3)[O]CCNCC[O]2)cc1
Result: -13.1% (inactive)

Query: I am curious: what growth inhibition value has been reported for CC[PH+](CC)CC.[Cl][Au] ?
Result: 89.8% (active)

Query: Given the molecule Cc1cccc(C)c1[S][Pb][S]c1c(C)cccc1C , what is its reported growth inhibition?
Result: -0.6% (inactive)
